Molecular target: pT7_6His-AlfaTag-ZIF268 (human, UniProt P18146 335-423)
Assay: PADIT-seq
Settings: dsDNA, one strand shown
endpointLabel: binding signal (log2FC)
Could you give me the number in log2FC? Just the number is fine.

A selection of reference data follows.
CTCGAGGATATCAAGATCTGGCCTCGGCCGCCCACTTGGAACCTCTAGCTAGCCGACTCACTATAGGGATAATCGCCCTGAGCAAAGACC
0.543
CTCGAGGATATCAAGATCTGGCCTCGGCTACATAAAAGGAACCTCTAGCTAGCCGACTCACTATAGGGATAATCGCCCTGAGCAAAGACC
0.0761

Missing value: binding signal, pT7_6His-AlfaTag-ZIF268 (human, UniProt P18146 335-423), entry CTCGAGGATATCAAGATCTGGCCTCGGCGCGTGGTTGGGAACCTCTAGCTAGCCGACTCACTATAGGGATAATCGCCCTGAGCAAAGACC . Fill in?
0.34

Missing value: binding signal, pT7_6His-AlfaTag-ZIF268 (human, UniProt P18146 335-423), entry CTCGAGGATATCAAGATCTGGCCTCGGCGCGTGGTGGGGAACCTCTAGCTAGCCGACTCACTATAGGGATAATCGCCCTGAGCAAAGACC . Fill in?
0.205

// data source = paper doi:10.1101/2024.03.05.583629
